- tested-on: T1, hLTBP1-proTGFβ1 (human, UniProt Q14766 347-1721; P01137 30-390, limits assumed)
- T1 construct: Large latent complex (LLC): proTGFβ1 dimer disulfide-linked to one presenting molecule; recombinant, purified, biotinylated in BLI/SPR; The same id is used for the complex made by transfected cells in the reporter assays; also called human LTBP1-proTGFβ1 complex; LTBP1-ProTGFb1
- test-description: MSD-SET, hIgG4
pKd: −log10 of the molar value.
Reported pKd values follow for various binders
recorded-endpoint: pKd

1. Ab6 (antibody, V domains shown, Fully human IgG4/kappa) VH: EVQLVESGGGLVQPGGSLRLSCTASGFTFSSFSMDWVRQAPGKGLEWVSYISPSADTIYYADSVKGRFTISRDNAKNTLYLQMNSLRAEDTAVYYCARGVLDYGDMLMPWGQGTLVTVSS VL: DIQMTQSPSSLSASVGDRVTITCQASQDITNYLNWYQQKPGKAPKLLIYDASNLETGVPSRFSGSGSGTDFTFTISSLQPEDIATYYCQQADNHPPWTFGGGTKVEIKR | 10.74
2. Ab30 (antibody, V domains shown) VH: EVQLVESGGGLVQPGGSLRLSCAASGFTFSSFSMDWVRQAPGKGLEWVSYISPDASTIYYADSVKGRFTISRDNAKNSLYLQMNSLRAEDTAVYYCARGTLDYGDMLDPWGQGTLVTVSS VL: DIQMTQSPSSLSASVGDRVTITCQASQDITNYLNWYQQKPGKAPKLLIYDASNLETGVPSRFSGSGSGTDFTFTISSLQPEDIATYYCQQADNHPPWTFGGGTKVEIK | 10.51
